Target: human TLR7 (Homo sapiens)
Sequence (Q9NYK1 27-1049): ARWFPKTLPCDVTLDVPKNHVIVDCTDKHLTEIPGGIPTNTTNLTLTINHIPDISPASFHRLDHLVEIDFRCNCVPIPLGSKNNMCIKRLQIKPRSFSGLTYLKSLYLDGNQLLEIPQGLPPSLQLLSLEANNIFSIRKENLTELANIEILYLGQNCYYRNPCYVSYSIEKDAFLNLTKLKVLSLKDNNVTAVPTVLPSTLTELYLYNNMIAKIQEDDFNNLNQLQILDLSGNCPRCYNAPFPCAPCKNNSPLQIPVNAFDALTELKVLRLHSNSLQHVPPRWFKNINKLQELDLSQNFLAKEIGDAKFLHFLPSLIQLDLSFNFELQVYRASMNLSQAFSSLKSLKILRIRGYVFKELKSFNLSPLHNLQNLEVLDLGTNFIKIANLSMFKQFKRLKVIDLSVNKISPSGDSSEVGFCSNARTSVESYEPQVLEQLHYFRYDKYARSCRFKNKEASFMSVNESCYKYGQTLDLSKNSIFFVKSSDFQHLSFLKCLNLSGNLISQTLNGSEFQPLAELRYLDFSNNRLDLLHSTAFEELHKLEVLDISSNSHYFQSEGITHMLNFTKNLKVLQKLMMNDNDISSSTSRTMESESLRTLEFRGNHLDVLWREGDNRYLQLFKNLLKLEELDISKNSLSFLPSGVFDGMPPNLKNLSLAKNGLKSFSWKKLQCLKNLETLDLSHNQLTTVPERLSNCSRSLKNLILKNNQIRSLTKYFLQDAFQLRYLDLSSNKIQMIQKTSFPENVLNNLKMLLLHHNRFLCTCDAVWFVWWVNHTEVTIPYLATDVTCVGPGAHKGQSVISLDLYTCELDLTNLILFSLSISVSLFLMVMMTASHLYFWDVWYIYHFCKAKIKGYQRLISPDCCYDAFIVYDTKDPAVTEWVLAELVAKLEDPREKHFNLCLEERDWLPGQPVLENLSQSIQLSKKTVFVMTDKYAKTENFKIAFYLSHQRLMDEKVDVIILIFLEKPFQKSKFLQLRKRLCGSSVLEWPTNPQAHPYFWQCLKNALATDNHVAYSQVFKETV
Assay: TLR7 inhibition reporter assay (HEK-Blue cells, SEAP reporter, gardiquimod stimulation)
Conditions: HEK-Blue cells overexpressing human TLR7, SEAP reporter, gardiquimod 7.5 μM
Mark yes (1) for IC50 under 7 nM, no (0) if at or over.

Lookup: Is IC50 strictly under 7 nM for the entry Cc1cc(-c2[nH]nc(-c3cnc(N)nc3)c2C(C)C)cn2ncnc12 ?
Found: yes (1)

Lookup: is_below(IC50, 7 nM) for Cc1cc(-c2[nH]nc(-c3ccc(N4CC(N(C)C)C4)cc3)c2C(C)C)cn2ncnc12 ?
Found: no (0)

Lookup: For this compound, is IC50 lower than 7 nM? Cc1cc(-c2[nH]nc(C(=O)N[C@H]3CC[C@H](N(CCC(C)C)CCC(C)C)CC3)c2C(C)C)cn2ncnc12
Found: yes (1)

Lookup: Strictly below 7 nM in IC50? COc1cc(-c2[nH]nc(-c3ccc(C4CCN(CC(N)=O)CC4)cn3)c2C(C)C)cn2ncnc12
Found: no (0)

Lookup: Bench note: check whether COc1cc(-c2[nH]nc(-c3ccc(C4CN(C)C4)cc3)c2C(C)C)cn2ncnc12 shows IC50 below 7 nM
Found: no (0)

Next up:
Lookup: I wonder whether Cc1cc(-c2[nH]nc(-c3ccc4c(c3)CNCC4)c2C(C)C)cn2ncnc12 has IC50 below 7 nM. Can you tell?
Found: yes (1)
